Reported values of α5-GABAAR Relative Efficacy (to DMCM), SyncroPatch for individual entries
experimental.system: human α5β3γ2L GABAA receptors in HEK293 cells (Homo sapiens, UniProt P18507+P31644)
Construct: expressed in transfected cells
Sequence (P31644 32-462): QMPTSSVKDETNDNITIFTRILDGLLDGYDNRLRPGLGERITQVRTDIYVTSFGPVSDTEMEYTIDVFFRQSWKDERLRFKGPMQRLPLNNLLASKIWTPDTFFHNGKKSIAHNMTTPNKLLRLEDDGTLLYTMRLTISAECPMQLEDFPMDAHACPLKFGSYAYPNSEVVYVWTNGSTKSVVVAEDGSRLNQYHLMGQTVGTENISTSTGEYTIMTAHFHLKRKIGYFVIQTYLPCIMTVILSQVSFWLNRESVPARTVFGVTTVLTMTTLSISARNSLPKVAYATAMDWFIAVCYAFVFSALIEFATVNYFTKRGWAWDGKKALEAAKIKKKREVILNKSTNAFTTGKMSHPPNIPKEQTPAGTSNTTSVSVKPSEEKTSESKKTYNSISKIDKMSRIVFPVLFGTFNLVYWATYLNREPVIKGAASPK
Sequence (P28472 26-473 partner): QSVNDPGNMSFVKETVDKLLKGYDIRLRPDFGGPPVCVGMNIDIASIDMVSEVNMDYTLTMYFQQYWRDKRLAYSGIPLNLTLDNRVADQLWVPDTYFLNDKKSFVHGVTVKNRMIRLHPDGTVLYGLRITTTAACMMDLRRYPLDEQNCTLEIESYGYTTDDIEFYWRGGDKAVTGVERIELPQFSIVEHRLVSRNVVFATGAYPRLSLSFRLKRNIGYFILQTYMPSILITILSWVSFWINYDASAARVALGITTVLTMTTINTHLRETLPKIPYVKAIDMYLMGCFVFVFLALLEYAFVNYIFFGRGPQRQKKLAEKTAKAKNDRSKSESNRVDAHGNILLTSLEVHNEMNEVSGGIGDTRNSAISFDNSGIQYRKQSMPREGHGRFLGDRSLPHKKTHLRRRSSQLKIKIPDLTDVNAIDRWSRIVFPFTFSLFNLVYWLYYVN
Sequence (P18507 40-475): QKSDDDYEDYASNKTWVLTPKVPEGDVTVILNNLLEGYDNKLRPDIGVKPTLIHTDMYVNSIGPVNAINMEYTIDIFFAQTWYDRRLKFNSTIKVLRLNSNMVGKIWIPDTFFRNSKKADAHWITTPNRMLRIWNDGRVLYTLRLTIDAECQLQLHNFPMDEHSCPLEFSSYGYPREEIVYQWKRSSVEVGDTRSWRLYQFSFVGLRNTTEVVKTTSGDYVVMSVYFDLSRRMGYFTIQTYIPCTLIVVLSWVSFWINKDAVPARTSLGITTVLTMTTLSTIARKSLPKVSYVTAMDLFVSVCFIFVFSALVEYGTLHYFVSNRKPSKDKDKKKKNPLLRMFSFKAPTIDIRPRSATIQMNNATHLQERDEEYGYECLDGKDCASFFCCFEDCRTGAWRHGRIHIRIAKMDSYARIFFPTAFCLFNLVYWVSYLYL
test.name: In vitro electrophysiological recording assay (α5-GABAAR relative efficacy), SyncroPatch
Assay type: cell-based
test.context: Conc 0.1 μM; GABA EC10-20
Where a name gives a salt, the structure may show the parent alone.
result.type: α5-GABAAR Relative Efficacy (to DMCM), SyncroPatch

>  <compound>
COc1nc(-c2cnc(OC3CNC3)nc2)ccc1NC(=O)c1c(-c2ccccc2)noc1C

>  <measured.value>
−0.72

$$$$
>  <compound>
Cc1onc(-c2ccc(F)cc2)c1C(=O)Nc1ccc(-c2cnc3n2CCNC3)nc1OC(C)C.Cl

>  <measured.value>
−0.70

$$$$
>  <compound>
COc1nc(-c2nnc3n2CCNC3)ccc1NC(=O)c1c(-c2ccccc2)noc1C [Example 196, dihydrochloride]

>  <measured.value>
−0.68

$$$$
>  <compound>
COc1nc(-c2cnc(C(N)=O)nc2)ccc1NC(=O)c1c(-c2ccccc2)noc1C

>  <measured.value>
−0.72

$$$$
>  <compound>
COc1nc(-c2ccc(CN3CC4COCC(C4)C3)cc2)ccc1NC(=O)c1c(-c2ccccc2)noc1C

>  <measured.value>
−0.68

$$$$
